Attribution: patent US9315490B2

For each of the molecules below, state its inhibition at 1 µM.
- Tested On: human PDE4B1 (Homo sapiens, UniProt Q07343)
- Construct: host or cells: Sf9 cells
- Sequence (Q07343 whole entry): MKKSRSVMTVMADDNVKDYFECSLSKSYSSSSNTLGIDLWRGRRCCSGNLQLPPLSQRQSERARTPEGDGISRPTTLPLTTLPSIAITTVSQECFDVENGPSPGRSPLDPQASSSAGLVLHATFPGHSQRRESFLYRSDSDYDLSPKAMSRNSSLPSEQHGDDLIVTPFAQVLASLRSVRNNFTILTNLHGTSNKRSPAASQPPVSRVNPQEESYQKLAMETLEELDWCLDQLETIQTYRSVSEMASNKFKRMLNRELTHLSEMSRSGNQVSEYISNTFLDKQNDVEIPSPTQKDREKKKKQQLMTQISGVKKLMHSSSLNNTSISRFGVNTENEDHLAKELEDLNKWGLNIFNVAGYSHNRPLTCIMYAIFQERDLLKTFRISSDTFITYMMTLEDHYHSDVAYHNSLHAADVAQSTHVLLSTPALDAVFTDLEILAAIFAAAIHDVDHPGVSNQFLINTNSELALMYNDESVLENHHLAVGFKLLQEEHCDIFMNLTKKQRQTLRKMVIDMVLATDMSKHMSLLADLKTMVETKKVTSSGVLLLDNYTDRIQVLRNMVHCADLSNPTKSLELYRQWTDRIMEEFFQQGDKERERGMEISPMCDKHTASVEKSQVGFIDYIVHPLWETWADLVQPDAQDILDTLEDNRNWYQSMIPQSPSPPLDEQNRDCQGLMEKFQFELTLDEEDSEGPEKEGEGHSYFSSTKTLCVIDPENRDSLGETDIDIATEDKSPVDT
- Protocol: cAMP HTRF assay to determine the activity of hPDE4B1
- Type: biochemical
- Condition Set: inhibition of PDE4B at a test concentration of 1 μM
Give just the number in %; leave the unit off.

# input Specify measured inhibition at 1 µM for COc1ccnc(-c2cnc(-n3cc([S+](C)[O-])c4ccc(C(=O)N5CCOCC5)cc43)nc2)c1 (stereo not shown) [Example 141] .
# output 115

# input Specify measured inhibition at 1 µM for C[S+]([O-])c1cn(-c2ncc(-c3cc(C(N)=O)ccc3F)cn2)c2cc(C(=O)N3CCOCC3)ccc12 (stereo not shown) [Example 43] .
# output 83

# input Specify measured inhibition at 1 µM for CN(CC(=O)O)C(=O)c1ccc2c([S+](C)[O-])cn(-c3ncc(-c4ccccc4F)cn3)c2c1 (stereo not shown) [Example 173] .
# output 70

# input Specify measured inhibition at 1 µM for C[S+]([O-])c1cn(-c2ncc(-c3ccccc3F)cn2)c2cc(C(=O)NC3COC3)ccc12 (stereo not shown) [Example 75] .
# output 47

# input Specify measured inhibition at 1 µM for CN(C(=O)c1ccc2c([S+](C)[O-])cn(-c3ncc(-c4ccccc4F)cn3)c2c1)C1CCOCC1 (stereo not shown) [Example 382] .
# output 0

# input Specify measured inhibition at 1 µM for C[S+]([O-])c1cn(-c2ncc(-c3ccc(F)cn3)cn2)c2cc(C(=O)N3CCOCC3)ccc12 (stereo not shown) [Example 200] .
# output 87

# input Specify measured inhibition at 1 µM for C[S+]([O-])c1cn(-c2ncc(-c3ccncc3F)cn2)c2cc(C(=O)N3CCOCC3)ccc12 (stereo not shown) [Example 150] .
# output 49

* * *

- Tested On: human PDE4B1 (Homo sapiens)
- Construct: host or cells: Sf9 cells
- Protocol: cAMP HTRF assay to determine the activity of hPDE4B1
- Type: biochemical
- Condition Set: inhibition of PDE4B at a test concentration of 1 μM
For each of the compounds below, state its inhibition at 1 µM.
Phrase the answer as number then unit, nothing more needed.

# input Specify measured inhibition at 1 µM for C[S+]([O-])c1cn(-c2ncc(-c3ccccc3F)cn2)c2cc(C(=O)N3CCN(CCO)CC3)ccc12 (stereo not shown) [Example 389] .
# output 52%

# input Specify measured inhibition at 1 µM for COc1ccc(F)c(-c2cnc(-n3cc(S(C)(=O)=O)c4ccc(C(=O)N5CC[C@@H](N)C5)cc43)nc2)c1 [Example 230] .
# output 110%

# input Specify measured inhibition at 1 µM for COc1ccc(F)c(-c2cnc(-n3cc([S+](C)[O-])c4ccc(C(=O)N5CCOCC5)cc43)nc2)c1 (single isomer, unassigned) [Example 160] .
# output 107%

# input Specify measured inhibition at 1 µM for CS(=O)(=O)c1cn(-c2ncc(-c3ccccc3)cn2)c2cc(C(=O)N3CCNCC3)ccc12 [Example 21] .
# output 32%

# input Specify measured inhibition at 1 µM for CC(C)N(C(=O)c1ccc2c([S+](C)[O-])cn(-c3ncc(-c4ccccc4F)cn3)c2c1)C(C)C (stereo not shown) [Example 366] .
# output 30%

# input Specify measured inhibition at 1 µM for C[S+]([O-])c1cn(-c2ncc(-c3cccc(C(N)=O)c3)cn2)c2cc(C(=O)N3CCOCC3)ccc12 (stereo not shown) [Example 35] .
# output 67%

# input Specify measured inhibition at 1 µM for C[S+]([O-])c1cn(-c2ncc(-c3ccccn3)cn2)c2cc(C(=O)N3CCOCC3)ccc12 (stereo not shown) [Example 50] .
# output 91%

# input Specify measured inhibition at 1 µM for CS(=O)(=O)c1cn(-c2ncc(-c3ccc(F)cc3F)cn2)c2cc(C(=O)N3CCOCC3)ccc12 [Example 6] .
# output 88%

# input Specify measured inhibition at 1 µM for C[S+]([O-])c1cn(-c2ncc(-c3cccc(C#N)n3)cn2)c2cc(C(=O)N3CCOCC3)ccc12 (stereo not shown) [Example 183] .
# output 60%

# input Specify measured inhibition at 1 µM for COc1cccc(-c2cnc(-n3cc(S(C)(=O)=O)c4ccc(C(=O)N5CCOCC5)cc43)nc2)c1 [Example 159] .
# output 98%

# input Specify measured inhibition at 1 µM for C[S+]([O-])c1cn(-c2ncc(-c3cccc(C(=O)O)c3)cn2)c2cc(C(=O)N3CCOCC3)ccc12 (stereo not shown) [Example 193] .
# output 91%

# input Specify measured inhibition at 1 µM for C[S+]([O-])c1cn(-c2ncc(-c3ccc(C(=O)O)cc3)cn2)c2cc(C(=O)N3CCOCC3)ccc12 (stereo not shown) [Example 191] .
# output 85%

# input Specify measured inhibition at 1 µM for CO[C@H]1CCN(C(=O)c2ccc3c([S+](C)[O-])cn(-c4ncc(-c5ccccc5F)cn4)c3c2)C1 (stereo partly shown) [Example 172] .
# output 46%

# input Specify measured inhibition at 1 µM for C[S+]([O-])c1cn(-c2ncc(-c3ccccc3F)cn2)c2cc(C(=O)N3C[C@H]4C[C@@H]3CO4)ccc12 (stereo partly shown) [Example 243] .
# output 64%

# input Specify measured inhibition at 1 µM for C[S+]([O-])c1cn(-c2ncc(-c3ccccc3F)cn2)c2cc(C(=O)NCC3COC3)ccc12 (stereo not shown) [Example 83] .
# output 67%

# input Specify measured inhibition at 1 µM for CN(CCO)C(=O)c1ccc2c([S+](C)[O-])cn(-c3ncc(-c4ccccc4F)cn3)c2c1 (stereo not shown) [Example 64] .
# output 67%

* * *

- Tested On: human PDE4B1 (Homo sapiens, UniProt Q07343)
- Construct: host or cells: Sf9 cells
- Protocol: cAMP HTRF assay to determine the activity of hPDE4B1
- Assay type: biochemical
- Condition Set: inhibition of PDE4B at a test concentration of 1 μM
- Experimental: Biological Testing cAMP HTRF® Assay to Determine the Activity of hPDE4B1 The inhibiting effect of the compounds on the enzyme activity of human PDE4B1 was measured by the quantification of 5′-adenosine monophosphate (5′-AMP), which is formed from 3′,5′-cyclic adenosine monophosphate (cAMP). Human recombinant enzyme, expressed in Sf9 cells, and the HTRF (homogeneous time-resolved fluorescence) detection method were used in the assay. […]
For each of the molecules below, state its inhibition at 1 µM.
Give just the number in %; leave the unit off.

# input Specify measured inhibition at 1 µM for C[S+]([O-])c1cn(-c2ncc(-c3cccc(F)c3)cn2)c2cc(C(=O)N3CCOCC3)ccc12 (centres unmarked) .
# output 90

# input Specify measured inhibition at 1 µM for CC(C)(O)c1cn(-c2ncc(-c3ccccc3F)cn2)c2cc(C(=O)N3CCOCC3)ccc12 .
# output 86

# input Specify measured inhibition at 1 µM for CN(C(=O)c1ccc2c([S+](C)[O-])cn(-c3ncc(-c4ccccc4F)cn3)c2c1)C1CCOC1 (centres unmarked) .
# output 46

# input Specify measured inhibition at 1 µM for Cc1cccc(-c2cnc(-n3cc([S+](C)[O-])c4ccc(C(=O)N5CC[C@@H](N)C5)cc43)nc2)c1 (some centres unmarked) .
# output 102

# input Specify measured inhibition at 1 µM for C[S+]([O-])c1cn(-c2ncc(-c3cc(N)ccc3F)cn2)c2cc(C(=O)N3CCOCC3)ccc12 (centres unmarked) .
# output 118

* * *

- Tested On: human PDE4B1 (Homo sapiens, UniProt Q07343)
- Construct: host or cells: Sf9 cells
- Protocol: TR-FRET assay using the LANCE Ultra cAMP kit to determine the activity of hPDE4B1
- Format: biochemical
- Condition Set: test concentration 1 μM, read-out: Inhibition in % (inhibition of PDE4B)
Measured Endpoint: inhibition at 1 µM
Phrase the answer as number then unit, nothing more needed.

# input Specify measured inhibition at 1 µM for C[S+]([O-])c1cn(-c2ncc(-c3ccccc3F)cn2)c2cc(C(=O)N3C4CCC3CNC4)ccc12 (stereo not drawn) .
# output 99%

# input Specify measured inhibition at 1 µM for C[S+]([O-])c1cn(-c2ncc(-c3cc(Cl)ccn3)cn2)c2cc(C(=O)N3CCOCC3)ccc12 (stereo not drawn) .
# output 94%

# input Specify measured inhibition at 1 µM for CSc1cn(-c2ncc(-c3ccccc3F)cn2)c2cc(C(=O)N3CCOCC3)ccc12 .
# output 89%

* * *

- Tested On: human PDE4B1 (Homo sapiens)
- Construct: host or cells: Sf9 cells
- Protocol: cAMP HTRF assay to determine the activity of hPDE4B1
- Format: biochemical
- Condition Set: inhibition of PDE4B at a test concentration of 1 μM
For each of the compounds below, state its inhibition at 1 µM.
Give just the number in %; leave the unit off.

# input Specify measured inhibition at 1 µM for C[S+]([O-])c1cn(-c2ncc(-c3cccc(F)c3F)cn2)c2cc(C(=O)N3CCOCC3)ccc12 (stereo not shown) .
# output 106

# input Specify measured inhibition at 1 µM for C[S+]([O-])c1cn(-c2ncc(-c3cccc(F)n3)cn2)c2cc(C(=O)N3CCOCC3)ccc12 (stereo not shown) .
# output 97

# input Specify measured inhibition at 1 µM for CN(CC(N)=O)C(=O)c1ccc2c([S+](C)[O-])cn(-c3ncc(-c4ccccc4F)cn3)c2c1 (stereo not shown) .
# output 105

# input Specify measured inhibition at 1 µM for C[S+]([O-])c1cn(-c2ncc(-c3cc(C#N)ccc3F)cn2)c2cc(C(=O)N3CC[C@@H](N)C3)ccc12 (stereo partly shown) .
# output 92

# input Specify measured inhibition at 1 µM for C[S+]([O-])c1cn(-c2ncc(-c3cc(N)ccn3)cn2)c2cc(C(=O)N3CCOCC3)ccc12 (stereo not shown) .
# output 101

# input Specify measured inhibition at 1 µM for C[S+]([O-])c1cn(-c2ncc(-c3ccccc3F)cn2)c2cc(C(=O)N3CCCOCC3)ccc12 (stereo not shown) .
# output 79

# input Specify measured inhibition at 1 µM for C[S+]([O-])c1cn(-c2ncc(-c3cc(C(N)=O)ccn3)cn2)c2cc(C(=O)N3CCOCC3)ccc12 (stereo not shown) .
# output 94
